system: Nephotettix cincticeps; experiment: Insecticidal activity against Nephotettix cincticeps (green rice leafhopper) assessed as lethality at >1000 ppm; format: functional
In this section, each of the molecules is paired with its reported Activity.
PROPERTY MEASURED: Activity (%)

MOLECULE: CCC1COCC1CN/C(=N/[N+](=O)[O-])NC (mixture of isomers)
PROPERTY MEASURED: Activity
READOUT NUMBER: 70

MOLECULE: O=[N+]([O-])/C=C1\NCCN1CCO
PROPERTY MEASURED: Activity
READOUT NUMBER: 70

MOLECULE: O=C(OCCN1CCN/C1=C\[N+](=O)[O-])c1ccccc1
PROPERTY MEASURED: Activity
READOUT NUMBER: 70
